// provenance: ChEMBL document CHEMBL1148601

Readings of pIC50 for the listed molecules
test: Inhibition of TXB2 production in Sprague-Dawley rat whole blood; format: functional, tissue-based
The meaning of pIC50 here: minus log10 of the concentration in molar units.

Below, each entry is followed by its recorded pIC50 result.
Cc1c(CCOc2ccc(C(=O)O)cc2)c2cc(-c3ccccc3)ccc2n1C(c1ccccc1)c1ccccc1 ... 5.05
Cc1c(CCS(=O)(=O)c2ccc(C(=O)O)cc2)c2cc(Cl)ccc2n1C(c1ccccc1)c1ccccc1 ... 5.70
Cc1c(CCS(=O)(=O)c2ccc(C(=O)O)cc2)c2cccc(Cl)c2n1C(c1ccccc1)c1ccccc1 ... 5.00
Cc1c(CCOc2ccc(C(=O)O)cc2)c2ccc(Cl)cc2n1C(c1ccccc1)c1ccccc1 ... 4.89
Cc1c(CCSc2ccc(C(=O)O)cc2)c2cc(Cl)ccc2n1C(c1ccccc1)c1ccccc1 ... 5.00

*Q* Let me know recorded pIC50 for Cc1c(CCS(=O)(=O)c2ccc(C(=O)O)cc2)c2ccccc2n1C(c1ccccc1)c1ccccc1 , thanks.
*A* 5.22

*Q* Let me know recorded pIC50 for Cc1c(CCS(=O)(=O)c2ccc(C(=O)O)cc2)c2c(Cl)cccc2n1C(c1ccccc1)c1ccccc1 , thanks.
*A* 4.92

*Q* Let me know recorded pIC50 for Cc1c(CCOc2ccc(C(=O)O)cc2)c2cc(Cl)ccc2n1C(c1ccccc1)c1ccccc1 , thanks.
*A* 5.15

---

test: Inhibition of TXB2 production in Sprague-Dawley rat whole blood; type: functional, tissue-based
observed-property: pIC50
The meaning of pIC50 here: minus log10 of the concentration in molar units.

Below, each entry is followed by its recorded pIC50 result.
O=C(COc1ccc(SCCCCCc2ccccc2)cc1)COc1ccc(C(=O)O)cc1 ... 4.92
Cc1c(CCCCOc2ccc(C(=O)O)cc2)c2cc(Cl)ccc2n1C(c1ccccc1)c1ccccc1 ... 5.05
Cc1c(CCS(=O)(=O)c2ccc(C(=O)O)cc2)c2ccc(Cl)cc2n1C(c1ccccc1)c1ccccc1 ... 5.30

Kindly review the next compound as well.
*Q* Let me know recorded pIC50 for Cc1c(CCS(=O)(=O)c2ccc(C(=O)O)cc2)c2cc(F)ccc2n1C(c1ccccc1)c1ccccc1 , thanks.
*A* 5.30

---

assay: Plasma concentration in rat; format: ADME, organism-based
observed-property: clearance (mL/min/kg)
Provide the reading as a plain figure in mL/min/kg.

*Q* Let me know recorded clearance for Cc1c(CCS(=O)(=O)c2ccc(C(=O)O)cc2)c2cc(Cl)ccc2n1C(c1ccccc1)c1ccccc1 , thanks.
*A* 44

*Q* Let me know recorded clearance for Cc1c(CCOc2ccc(C(=O)O)cc2)c2cc(Cl)ccc2n1C(c1ccccc1)c1ccccc1 , thanks.
*A* 3.2

*Q* Let me know recorded clearance for Cc1c(CCS(=O)(=O)c2ccc(CCC(=O)O)cc2)c2cc(Cl)ccc2n1C(c1ccccc1)c1ccccc1 , thanks.
*A* 47

---

Biological target: Cytosolic phospholipase A2 (Homo sapiens, UniProt P47712)
Sequence (P47712 whole entry): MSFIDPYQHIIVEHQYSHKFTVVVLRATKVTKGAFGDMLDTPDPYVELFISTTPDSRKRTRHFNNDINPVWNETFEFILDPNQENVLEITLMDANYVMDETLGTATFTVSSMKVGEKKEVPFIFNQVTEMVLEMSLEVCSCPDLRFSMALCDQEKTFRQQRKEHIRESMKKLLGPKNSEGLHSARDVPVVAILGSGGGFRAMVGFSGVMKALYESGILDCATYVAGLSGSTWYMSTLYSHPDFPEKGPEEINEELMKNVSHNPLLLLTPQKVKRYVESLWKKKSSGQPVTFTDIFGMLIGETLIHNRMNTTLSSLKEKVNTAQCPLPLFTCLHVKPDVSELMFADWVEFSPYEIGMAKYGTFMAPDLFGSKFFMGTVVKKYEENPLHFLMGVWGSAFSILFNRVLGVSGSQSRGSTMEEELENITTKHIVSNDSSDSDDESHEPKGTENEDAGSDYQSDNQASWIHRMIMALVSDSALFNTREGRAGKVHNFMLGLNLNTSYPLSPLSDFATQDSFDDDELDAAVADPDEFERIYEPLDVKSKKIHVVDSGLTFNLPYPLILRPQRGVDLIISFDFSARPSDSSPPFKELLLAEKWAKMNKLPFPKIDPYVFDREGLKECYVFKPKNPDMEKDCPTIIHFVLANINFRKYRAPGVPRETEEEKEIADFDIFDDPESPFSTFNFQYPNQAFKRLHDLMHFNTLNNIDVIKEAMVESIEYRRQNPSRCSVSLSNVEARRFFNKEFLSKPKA
observed-property: IC50

Cc1c(CCOc2ccc(CCCC(=O)O)cc2)c2cc(Cl)ccc2n1C(c1ccccc1)c1ccccc1 ... 20 µM
Cc1c(CCNc2ccc(C(=O)O)cc2)c2cc(Cl)ccc2n1C(c1ccccc1)c1ccccc1 ... 23 µM
Cc1c(CCOc2ccc(CC(=O)O)cc2)c2cc(Cl)ccc2n1C(c1ccccc1)c1ccccc1 ... > 10 µM
Cc1c(CCS(=O)(=O)c2ccc(C(=O)O)cc2)c2c(Cl)cccc2n1C(c1ccccc1)c1ccccc1 ... 2 µM
Cc1c(CCCc2ccc(C(=O)O)cc2)c2cc(Cl)ccc2n1C(c1ccccc1)c1ccccc1 ... 2 µM

*Q* Let me know recorded IC50 for Cc1c(CCS(=O)(=O)c2ccc(C(=O)O)cc2)c2cccc(Cl)c2n1C(c1ccccc1)c1ccccc1 , thanks.
*A* 6 µM

*Q* Let me know recorded IC50 for Cc1c(CCOC(=O)Nc2ccc(C(=O)O)cc2)c2cc(Cl)ccc2n1C(c1ccccc1)c1ccccc1 , thanks.
*A* 38 µM

---

test: Inhibition of TXB2 production in Sprague-Dawley rat whole blood; assay type: functional, tissue-based
Readings of pIC50 for the listed molecules
The meaning of pIC50 here: minus log10 of the concentration in molar units.

Below, each entry is followed by its recorded pIC50 result.
O=C(O)c1ccc(OCC(O)Cc2cn(C(c3ccccc3)c3ccccc3)c3cc(Cl)ccc23)cc1 (stereo not drawn) ... 4.00
Cc1c(CCC(=O)NCc2ccc(C(=O)O)cc2)c2cc(Cl)ccc2n1C(c1ccccc1)c1ccccc1 ... 4.30
Cc1c(C(=O)C(=O)Nc2ccc(C(=O)O)cc2)c2cc(Cl)ccc2n1C(c1ccccc1)c1ccccc1 ... 4.60

*Q* Let me know recorded pIC50 for Cc1c(CCOc2ccc(C(=O)O)c(F)c2)c2cc(Cl)ccc2n1C(c1ccccc1)c1ccccc1 , thanks.
*A* 5.10

*Q* Let me know recorded pIC50 for Cc1c(CC[S+]([O-])c2ccc(C(=O)O)cc2)c2cc(Cl)ccc2n1C(c1ccccc1)c1ccccc1 (stereo not drawn) , thanks.
*A* 5.52

*Q* Let me know recorded pIC50 for Cc1c(CCS(=O)(=O)c2ccc(C(=O)O)cc2)c2c(Cl)c(Cl)ccc2n1C(c1ccccc1)c1ccccc1 , thanks.
*A* 5.40

*Q* Let me know recorded pIC50 for Cc1c(CCOc2ccc(C(=O)O)cc2)c2cc([N+](=O)[O-])ccc2n1C(c1ccccc1)c1ccccc1 , thanks.
*A* 5.10

*Q* Let me know recorded pIC50 for Cc1c(CCS(=O)(=O)c2ccc(CCC(=O)O)cc2)c2cc(Cl)ccc2n1C(c1ccccc1)c1ccccc1 , thanks.
*A* 6.10

*Q* Let me know recorded pIC50 for Cc1c(CCOC(=O)Nc2ccc(C(=O)O)cc2)c2cc(Cl)ccc2n1C(c1ccccc1)c1ccccc1 , thanks.
*A* 4.89

*Q* Let me know recorded pIC50 for Cc1c(CCS(=O)(=O)c2ccc(C(=O)O)cc2)c2cc(Cl)c(Cl)cc2n1C(c1ccccc1)c1ccccc1 , thanks.
*A* 5.70

*Q* Let me know recorded pIC50 for Cc1c(CCOc2ccc(C(=O)O)c(Cl)c2)c2cc(Cl)ccc2n1C(c1ccccc1)c1ccccc1 , thanks.
*A* 4.60

*Q* Let me know recorded pIC50 for Cc1c(CC[S+]([O-])CCc2ccc(C(=O)O)cc2)c2cc(Cl)ccc2n1C(c1ccccc1)c1ccccc1 (stereo not drawn) , thanks.
*A* 4.60

*Q* Let me know recorded pIC50 for Cc1c(CCOc2ccc(C(=O)O)cc2Cl)c2cc(Cl)ccc2n1C(c1ccccc1)c1ccccc1 , thanks.
*A* 4.60

*Q* Let me know recorded pIC50 for O=C(O)c1ccc(OCCc2cn(C(c3ccccc3)c3ccccc3)c3ccc(Cl)cc23)cc1 , thanks.
*A* 4.85

*Q* Let me know recorded pIC50 for Cc1c(CCOc2ccc(CCC(=O)O)cc2)c2cc(Cl)ccc2n1C(c1ccccc1)c1ccccc1 , thanks.
*A* 5.70

---

Recorded pIC50 values (Cytosolic phospholipase A2 (Homo sapiens)) are given below.
The meaning of pIC50 here: minus log10 of the concentration in molar units.

Below, each entry is followed by its recorded pIC50 result.
Cc1c(CC(=O)O)c2cc(Cl)ccc2n1C(c1ccccc1)c1ccccc1 ... 3.78
Cc1c(CCS(=O)(=O)CCc2ccc(C(=O)O)cc2)c2cc(Cl)ccc2n1C(c1ccccc1)c1ccccc1 ... 4.03
Cc1c(CCCCOc2ccc(C(=O)O)cc2)c2cc(Cl)ccc2n1C(c1ccccc1)c1ccccc1 ... 5.70

*Q* Give pIC50; test system Cytosolic phospholipase A2 (Homo sapiens); compound O=C(O)c1cccc(CC(O)Cc2cn(C(c3ccccc3)c3ccccc3)c3cc(Cl)ccc23)c1 (stereo unspecified)
*A* 4.05

*Q* Give pIC50; test system Cytosolic phospholipase A2 (Homo sapiens); compound COc1c(Cc2cn(C(c3ccccc3)c3ccccc3)c3cc(Cl)ccc23)cccc1C(=O)O
*A* 3.92

*Q* Give pIC50; test system Cytosolic phospholipase A2 (Homo sapiens); compound Cc1c(CCOc2ccc(C(=O)O)cc2)c2cc(Cl)ccc2n1C(c1ccccc1)c1ccccc1
*A* 5.52

*Q* Give pIC50; test system Cytosolic phospholipase A2 (Homo sapiens); compound Cc1c(CCS(=O)(=O)c2ccc(C(=O)O)cc2)c2cc(F)ccc2n1C(c1ccccc1)c1ccccc1
*A* 6.00

*Q* Give pIC50; test system Cytosolic phospholipase A2 (Homo sapiens); compound Cc1c(CCSc2ccc(C(=O)O)cc2)c2cc(Cl)ccc2n1C(c1ccccc1)c1ccccc1
*A* 5.70

*Q* Give pIC50; test system Cytosolic phospholipase A2 (Homo sapiens); compound Cc1c(CCOc2ccc(C(=O)O)cc2)c2cc(-c3ccccc3)ccc2n1C(c1ccccc1)c1ccccc1
*A* 4.48

*Q* Give pIC50; test system Cytosolic phospholipase A2 (Homo sapiens); compound Cc1c(CCOc2ccc(C(=O)O)cc2)c2cc(N)ccc2n1C(c1ccccc1)c1ccccc1
*A* 5.10

*Q* Give pIC50; test system Cytosolic phospholipase A2 (Homo sapiens); compound Cc1c(CCOc2ccc(C(=O)O)cc2)c2cc([N+](=O)[O-])ccc2n1C(c1ccccc1)c1ccccc1
*A* 5.30
